Value source: ChEMBL document CHEMBL1156214

# assaySystem: Phosphatidylinositol 4,5-bisphosphate 3-kinase catalytic subunit alpha isoform (Homo sapiens, UniProt P42336)
# Sequence (P42336 whole entry, canonical isoform): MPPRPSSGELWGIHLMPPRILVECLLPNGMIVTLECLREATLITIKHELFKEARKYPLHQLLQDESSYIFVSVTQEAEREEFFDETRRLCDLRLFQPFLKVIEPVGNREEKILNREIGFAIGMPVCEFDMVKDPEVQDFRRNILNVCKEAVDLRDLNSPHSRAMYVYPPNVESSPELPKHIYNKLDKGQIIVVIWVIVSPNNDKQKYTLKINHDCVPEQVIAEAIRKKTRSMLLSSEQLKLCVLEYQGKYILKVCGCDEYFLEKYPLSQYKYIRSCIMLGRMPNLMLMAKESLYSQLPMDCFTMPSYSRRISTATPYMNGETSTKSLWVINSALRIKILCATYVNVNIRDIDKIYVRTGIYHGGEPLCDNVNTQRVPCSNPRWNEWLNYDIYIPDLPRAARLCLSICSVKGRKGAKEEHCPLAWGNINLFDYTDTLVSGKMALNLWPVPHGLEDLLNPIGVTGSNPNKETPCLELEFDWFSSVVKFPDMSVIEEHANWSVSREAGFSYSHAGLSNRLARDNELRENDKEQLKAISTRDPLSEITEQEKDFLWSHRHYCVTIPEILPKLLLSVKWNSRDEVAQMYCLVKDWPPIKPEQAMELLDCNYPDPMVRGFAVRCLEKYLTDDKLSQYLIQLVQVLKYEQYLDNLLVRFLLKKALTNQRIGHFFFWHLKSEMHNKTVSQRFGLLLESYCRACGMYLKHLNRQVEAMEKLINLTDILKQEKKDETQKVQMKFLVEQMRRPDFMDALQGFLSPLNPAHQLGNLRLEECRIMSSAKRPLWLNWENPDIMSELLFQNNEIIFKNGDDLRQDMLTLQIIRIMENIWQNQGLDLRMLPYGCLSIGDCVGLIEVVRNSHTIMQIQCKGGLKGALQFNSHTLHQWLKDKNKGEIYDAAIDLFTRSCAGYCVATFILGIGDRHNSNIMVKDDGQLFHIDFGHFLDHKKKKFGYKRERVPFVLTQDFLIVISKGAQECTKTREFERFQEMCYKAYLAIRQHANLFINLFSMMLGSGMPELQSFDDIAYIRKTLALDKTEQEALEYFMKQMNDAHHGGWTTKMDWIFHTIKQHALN
Values of IC50 strictly less than 2 nM map to Criterion met, and values of at least 2 nM map to Criterion not met.

Exam item: Would you kindly verify if IC50 of `Cc1c(-c2cccc(S(C)(=O)=O)c2)sc2c(N3CCOCC3)nc(-c3cnc(N)nc3)nc12` is strictly less than 2 nM?
Marked response: Criterion met

Exam item: Repeat for the following compound: `CN(Cc1cc2nc(-c3cnc(N)nc3)nc(N3CCOCC3)c2s1)S(C)(=O)=O`
Marked response: Criterion met

Exam item: Continue with `CC(=O)N(C)Cc1cc2nc(-c3cnc(N)nc3)nc(N3CCOCC3)c2s1`
Marked response: Criterion not met

Exam item: Likewise for `CC(=O)N(C)Cc1sc2c(N3CCOCC3)nc(-c3cnc(N)nc3)nc2c1C` ?
Marked response: Criterion not met

Exam item: Now the same for `CC(C)(N)c1cc2nc(-c3cnc(N)nc3)nc(N3CCOCC3)c2s1`
Marked response: Criterion not met

Exam item: Next compound up: `Nc1ncc(-c2nc(N3CCOCC3)c3sccc3n2)cn1`
Marked response: Criterion not met

Exam item: Input `CS(=O)(=O)c1cccc(-c2cc3nc(-c4cnc(N)nc4)nc(N4CCOCC4)c3s2)c1`
Marked response: Criterion met

Exam item: Okay, and `CN1CCN(C(=O)c2cccc(-c3cc4nc(-c5cnc(N)nc5)nc(N5CCOCC5)c4s3)c2)CC1` ?
Marked response: Criterion met

---

# experimentalProtocol: Oral bioavailability in Beagle dog at 2 mg/kg
# Format: ADME, organism-based, Canis lupus familiaris
# runConditions: in vivo
Quick list: bioavailability per entry.
Write the quantity with the unit trailing the number.

Exam item: Which bioavailability is listed for `Cc1c(CN2CCN(S(C)(=O)=O)CC2)sc2c(N3CCOCC3)nc(-c3cnc(N)nc3)nc12` ?
Marked response: 90%

Exam item: One more compound: `CS(=O)(=O)N1CCN(Cc2cc3nc(-c4cnc(N)nc4)nc(N4CCOCC4)c3s2)CC1`
Marked response: 35%

---

# experimentalProtocol: Hepatic clearance in rat liver microsomes
# Format: ADME, Microsome
Mark each entry label 1 if its CLhep predicted sits below 20 mL/min/kg, and label 0 for all others.

Answered cases to consult:
| querySmiles | qualitativeLabel |
| --- | --- |
| CC(=O)N(C)Cc1cc2nc(-c3cnc(N)nc3)nc(N3CCOCC3)c2s1 | label 1 |
| Cc1c(CN2CCN(S(C)(=O)=O)CC2)sc2c(N3CCOCC3)nc(-c3cnc(N)nc3)nc12 | label 1 |
| Cc1c(-c2cccc(C(=O)N3CCN(C)CC3)c2)sc2c(N3CCOCC3)nc(-c3cnc(N)nc3)nc12 | label 0 |
| Cc1c(-c2cccc(S(C)(=O)=O)c2)sc2c(N3CCOCC3)nc(-c3cnc(N)nc3)nc12 | label 1 |
| CS(=O)(=O)c1cccc(-c2cc3nc(-c4cnc(N)nc4)nc(N4CCOCC4)c3s2)c1 | label 1 |

Exam item: Report whether reported CLhep predicted is lower than 20 mL/min/kg (strictly) for `CS(=O)(=O)N1CCN(Cc2cc3nc(-c4cnc(N)nc4)nc(N4CCOCC4)c3s2)CC1`
Marked response: label 1

---

# experimentalProtocol: Oral bioavailability in rat at 5 mg/kg
# Type: ADME, organism-based
# runConditions: in vivo
bioavailability listing for selected compounds.
Unit % implied. Number only.

Here's what some known entries look like.
| querySmiles | parameterMeasured | resultNumber |
| --- | --- | --- |
| CS(=O)(=O)c1cccc(-c2cc3nc(-c4cnc(N)nc4)nc(N4CCOCC4)c3s2)c1 | bioavailability | 3 |
| Cc1c(-c2cccc(S(C)(=O)=O)c2)sc2c(N3CCOCC3)nc(-c3cnc(N)nc3)nc12 | bioavailability | 4 |

Please examine the following record next.
Exam item: Tell me the measured bioavailability of `Cc1c(CN2CCN(S(C)(=O)=O)CC2)sc2c(N3CCOCC3)nc(-c3cnc(N)nc3)nc12` , please.
Marked response: 52

---

# assaySystem: Serine/threonine-protein kinase mTOR (Homo sapiens)
# experimentalProtocol: Inhibition of human recombinant mTOR assessed as reduction in GFP-4EBP1 phosphorylation after 30 mins by FRET assay
pKi: −log10 of the molar value.
Please mark True if the recorded pKi is equal to or greater than 8, and False if it falls below.

| querySmiles | assaySystem | qualitativeLabel |
| --- | --- | --- |
| Cc1c(-c2cccc(C(=O)N3CCN(C)CC3)c2)sc2c(N3CCOCC3)nc(-c3cnc(N)nc3)nc12 | Serine/threonine-protein kinase mTOR (Homo sapiens) | True |

Exam item: Check this compound for pKi at or above 8: `CS(=O)(=O)N1CCN(Cc2cc3nc(-c4cnc(N)nc4)nc(N4CCOCC4)c3s2)CC1`
Marked response: False

Exam item: Here is the next compound: `CC(C)(N)c1cc2nc(-c3cnc(N)nc3)nc(N3CCOCC3)c2s1`
Marked response: False

Exam item: Try `CC(=O)N(C)Cc1cc2nc(-c3cnc(N)nc3)nc(N3CCOCC3)c2s1` next.
Marked response: False

Exam item: Follow-up entry: `Cc1c(-c2cccc(S(C)(=O)=O)c2)sc2c(N3CCOCC3)nc(-c3cnc(N)nc3)nc12`
Marked response: True

Exam item: Subsequent entry: `Cc1c(CN2CCN(S(C)(=O)=O)CC2)sc2c(N3CCOCC3)nc(-c3cnc(N)nc3)nc12`
Marked response: False

---

# experimentalProtocol: Plasma protein binding in rat at 1 mg/kg, iv or 5 mg/kg, po
# Format: ADME, organism-based
# runConditions: read-out: PPB (converted)
Overview of recorded fraction unbound for various molecules
// keep it numeric: no unit symbol after the value

Some solved cases for reference:
| querySmiles | resultNumber |
| --- | --- |
| CC(=O)N(C)Cc1sc2c(N3CCOCC3)nc(-c3cnc(N)nc3)nc2c1C | 0.49 |
| Cc1c(-c2cccc(S(C)(=O)=O)c2)sc2c(N3CCOCC3)nc(-c3cnc(N)nc3)nc12 | 0.03 |

Exam item: fraction unbound for `CS(=O)(=O)N1CCN(Cc2cc3nc(-c4cnc(N)nc4)nc(N4CCOCC4)c3s2)CC1` ?
Marked response: 0.48

Exam item: Next entry: `Cc1c(CN2CCN(S(C)(=O)=O)CC2)sc2c(N3CCOCC3)nc(-c3cnc(N)nc3)nc12`
Marked response: 0.25

---

Listing of entries alongside the reported solubility thermodynamic.
# experimentalProtocol: Thermodynamic solubility at pH 6.5
# Assay type: physicochemical
# runConditions: buffer
Numbers only here, please. The scale is µg/mL.

Worked cases, answers included:
| querySmiles | unitsOfMeasure | solubility thermodynamic |
| --- | --- | --- |
| CS(=O)(=O)N1CCN(Cc2cc3nc(-c4cnc(N)nc4)nc(N4CCOCC4)c3s2)CC1 | µg/mL | 62 |
| Cc1c(-c2cccc(S(C)(=O)=O)c2)sc2c(N3CCOCC3)nc(-c3cnc(N)nc3)nc12 | µg/mL | 3 |
| Nc1ncc(-c2nc(N3CCOCC3)c3sccc3n2)cn1 | µg/mL | 170 |
| CC(=O)N(C)Cc1cc2nc(-c3cnc(N)nc3)nc(N3CCOCC3)c2s1 | µg/mL | 770 |
| CS(=O)(=O)c1cccc(-c2cc3nc(-c4cnc(N)nc4)nc(N4CCOCC4)c3s2)c1 | µg/mL | 1 |

Please find the next molecule below.
Exam item: Which measured solubility thermodynamic value corresponds to `CN(Cc1cc2nc(-c3cnc(N)nc3)nc(N3CCOCC3)c2s1)S(C)(=O)=O` ?
Marked response: 15

---

# System: Rattus norvegicus
# experimentalProtocol: Unbound clearance in rat at 1 mg/kg, iv or 5 mg/kg, po
# Assay type: ADME, organism-based
# runConditions: in vivo
Overview of recorded Unbound clearance for various compounds
I only need the number, in mL/min/kg, no unit after it.

For orientation, consider the following solved cases.
| querySmiles | parameterMeasured | resultNumber |
| --- | --- | --- |
| CS(=O)(=O)c1cccc(-c2cc3nc(-c4cnc(N)nc4)nc(N4CCOCC4)c3s2)c1 | Unbound clearance | 800 |
| CC(=O)N(C)Cc1cc2nc(-c3cnc(N)nc3)nc(N3CCOCC3)c2s1 | Unbound clearance | 94 |
| Cc1c(-c2cccc(S(C)(=O)=O)c2)sc2c(N3CCOCC3)nc(-c3cnc(N)nc3)nc12 | Unbound clearance | 433 |

Kindly consider the entry below.
Exam item: For the compound `Cc1c(CN2CCN(S(C)(=O)=O)CC2)sc2c(N3CCOCC3)nc(-c3cnc(N)nc3)nc12` , what Unbound clearance is on record?
Marked response: 52

---

# assaySystem: Serine/threonine-protein kinase mTOR (Homo sapiens)
# experimentalProtocol: Inhibition of human recombinant mTOR assessed as reduction in GFP-4EBP1 phosphorylation after 30 mins by FRET assay
parameterMeasured: Ki (nM)
Write the value in nM as a bare number.

| querySmiles | assaySystem | parameterMeasured | resultNumber |
| --- | --- | --- | --- |
| CN(Cc1cc2nc(-c3cnc(N)nc3)nc(N3CCOCC3)c2s1)S(C)(=O)=O | Serine/threonine-protein kinase mTOR (Homo sapiens) | Ki | 10 |
| CN1CCN(C(=O)c2cccc(-c3cc4nc(-c5cnc(N)nc5)nc(N5CCOCC5)c4s3)c2)CC1 | Serine/threonine-protein kinase mTOR (Homo sapiens) | Ki | 10 |
| Nc1ncc(-c2nc(N3CCOCC3)c3sccc3n2)cn1 | Serine/threonine-protein kinase mTOR (Homo sapiens) | Ki | 42 |
| CS(=O)(=O)c1cccc(-c2cc3nc(-c4cnc(N)nc4)nc(N4CCOCC4)c3s2)c1 | Serine/threonine-protein kinase mTOR (Homo sapiens) | Ki | 5 |

We now examine a further compound.
Exam item: So what's the measured Ki for this one? `CC(=O)N(C)Cc1sc2c(N3CCOCC3)nc(-c3cnc(N)nc3)nc2c1C`
Marked response: 30
